Values from ChEMBL document CHEMBL1156948

System: Yersinia pseudotuberculosis YPIII
assay: Inhibition of T3S in Yersinia pseudotuberculosis YPIII expressing yopE-luxAB at 12.5 uM after 3 hrs by luciferase reporter gene assay
Would you mind telling me the reported inhibition of each entry?
All answers are understood in %, so give the number only.

What value of inhibition has been recorded for this entry: "COc1cc(/C=N/NC(=O)c2cccc(C(F)(F)F)c2)c(O)c(OC)c1"
24

What value of inhibition has been recorded for this entry: "O=C(CCc1ccc(O)cc1)N/N=C/c1c(O)cc(O)cc1O"
23

What value of inhibition has been recorded for this entry: "NC(=O)C(=O)N/N=C/c1c(O)cc(O)cc1O"
17

What value of inhibition has been recorded for this entry: "O=C(CCc1ccc(F)cc1)N/N=C/c1cc(F)cc(Cl)c1O"
10

What value of inhibition has been recorded for this entry: "O=C(N/N=C/c1cc(Cl)cc(Cl)c1O)c1ccccc1[N+](=O)[O-]"
4

What value of inhibition has been recorded for this entry: "O=C(N/N=C/c1ccc(O)c(O)c1O)c1ccccc1[N+](=O)[O-]"
20

What value of inhibition has been recorded for this entry: "COc1cccc(C(=O)N/N=C/c2cc(OC)cc(OC)c2O)c1"
13

What value of inhibition has been recorded for this entry: "COc1ccc(Br)c(C(=O)N/N=C/c2ccc(Cl)cc2O)c1"
25

What value of inhibition has been recorded for this entry: "O=C(N/N=C/c1cc(F)cc(Cl)c1O)c1cc(Cl)cc(Cl)c1"
10

What value of inhibition has been recorded for this entry: "O=C(N/N=C/c1ccc(Cl)cc1O)c1ccncc1"
4

What value of inhibition has been recorded for this entry: "N#CCC(=O)N/N=C/c1cc(Br)ccc1O"
22

What value of inhibition has been recorded for this entry: "O=C(N/N=C/c1cc(Br)ccc1O)c1ccncc1"
24

What value of inhibition has been recorded for this entry: "O=C(N/N=C/c1cccc(F)c1O)c1ccc([N+](=O)[O-])cc1"
4

What value of inhibition has been recorded for this entry: "COc1cc(/C=N/NC(=O)COc2ccc([N+](=O)[O-])cc2)c(O)c(OC)c1"
14

What value of inhibition has been recorded for this entry: "COc1ccc(/C=N/NC(=O)c2sc3ccccc3c2Cl)c(O)c1"
12

What value of inhibition has been recorded for this entry: "COc1cccc(C(=O)N/N=C/c2cccc(F)c2O)c1"
11

What value of inhibition has been recorded for this entry: "O=C(N/N=C/c1cc(I)cc(I)c1O)c1cc(Cl)cc(Cl)c1"
17

What value of inhibition has been recorded for this entry: "O=C(N/N=C/c1c(O)cc(O)cc1O)c1sc2ccccc2c1Cl"
33

What value of inhibition has been recorded for this entry: "COc1cc(C(=O)N/N=C/c2ccc(O)c(O)c2O)cc(OC)c1OC"
19

What value of inhibition has been recorded for this entry: "COc1cccc(C(=O)N/N=C/c2cc(Br)ccc2O)c1"
15

What value of inhibition has been recorded for this entry: "O=C(COc1ccc(F)cc1)N/N=C/c1cc(I)cc(I)c1O"
18

What value of inhibition has been recorded for this entry: "COc1cc(Br)cc(/C=N/NC(=O)c2sc3ccccc3c2Cl)c1O"
20

What value of inhibition has been recorded for this entry: "CCN(CC)c1ccc(/C=N/NC(=O)COc2ccc(F)cc2)c(O)c1"
23

What value of inhibition has been recorded for this entry: "COc1cc(Br)cc(/C=N/NC(=O)CCc2ccc(O)cc2)c1O"
11

What value of inhibition has been recorded for this entry: "COc1ccc(Br)c(C(=O)N/N=C/c2cc(C(C)(C)C)ccc2O)c1"
26

What value of inhibition has been recorded for this entry: "CC(C)(C)c1cc(/C=N/NC(=O)c2cccc(C(F)(F)F)c2)c(O)c(C(C)(C)C)c1"
7

What value of inhibition has been recorded for this entry: "COc1ccc(Br)c(C(=O)N/N=C/c2cc([N+](=O)[O-])cc([N+](=O)[O-])c2O)c1"
12

What value of inhibition has been recorded for this entry: "COc1cc(C(=O)N/N=C/c2cc(Cl)cc(Cl)c2O)cc(OC)c1OC"
14

What value of inhibition has been recorded for this entry: "O=C(CC12CC3CC(CC(C3)C1)C2)N/N=C/c1ccc(Cl)cc1O"
19

What value of inhibition has been recorded for this entry: "COc1cc(Br)cc(/C=N/NC(=O)Cc2ccccc2)c1O"
15

What value of inhibition has been recorded for this entry: "CC(C)(C)c1ccc(O)c(/C=N/NC(=O)c2ccc(Br)cc2)c1"
29

What value of inhibition has been recorded for this entry: "COc1cccc(C(=O)N/N=C/c2cc(C(C)(C)C)cc(C(C)(C)C)c2O)c1"
13

What value of inhibition has been recorded for this entry: "COc1ccc(C(=O)N/N=C/c2cc(F)cc(Cl)c2O)cc1OC"
0

What value of inhibition has been recorded for this entry: "CC(C)(C)c1ccc(O)c(/C=N/NC(=O)Cc2ccccc2)c1"
4

What value of inhibition has been recorded for this entry: "COc1cc([N+](=O)[O-])cc(/C=N/NC(=O)CC#N)c1O"
24

What value of inhibition has been recorded for this entry: "Cc1ccc(C(=O)N/N=C/c2cc(C(C)(C)C)ccc2O)cc1"
18

What value of inhibition has been recorded for this entry: "COc1cc([N+](=O)[O-])cc(/C=N/NC(=O)c2ccncc2)c1O"
21

What value of inhibition has been recorded for this entry: "O=C(N/N=C/c1cc([N+](=O)[O-])cc([N+](=O)[O-])c1O)c1ccc(Br)cc1"
12

What value of inhibition has been recorded for this entry: "O=C(Cc1ccccc1)N/N=C/c1cc(Br)ccc1O"
7

What value of inhibition has been recorded for this entry: "COc1ccc(Br)c(/C=N/NC(=O)c2ccncc2)c1O"
18

What value of inhibition has been recorded for this entry: "CC(C)(C)c1cc(/C=N/NC(=O)COc2ccc([N+](=O)[O-])cc2)c(O)c(C(C)(C)C)c1"
14

What value of inhibition has been recorded for this entry: "COc1ccc(Br)c(/C=N/NC(=O)CC#N)c1O"
18

What value of inhibition has been recorded for this entry: "O=C(N/N=C/c1ccc(Cl)cc1O)c1ccc(Br)cc1"
26

What value of inhibition has been recorded for this entry: "COc1ccc(Br)c(/C=N/NC(=O)c2snnc2C)c1O"
21

What value of inhibition has been recorded for this entry: "COc1ccc(/C=N/NC(=O)C(N)=O)c(O)c1"
8

----------
Would you mind telling me the reported inhibition of each entry?
Test system: Yersinia pseudotuberculosis YPIII
assay: Inhibition of T3S in Yersinia pseudotuberculosis YPIII expressing yopE-luxAB at 25 uM after 3 hrs by luciferase reporter gene assay
All answers are understood in %, so give the number only.

What value of inhibition has been recorded for this entry: "COc1ccc(Br)c(C(=O)N/N=C/c2cc(C(C)(C)C)ccc2O)c1"
18

What value of inhibition has been recorded for this entry: "O=C(N/N=C/c1cc(Cl)cc(Cl)c1O)c1ccccc1[N+](=O)[O-]"
18

What value of inhibition has been recorded for this entry: "O=C(COc1ccc([N+](=O)[O-])cc1)N/N=C/c1cccc(F)c1O"
25

What value of inhibition has been recorded for this entry: "N#CCC(=O)N/N=C/c1cc(Br)ccc1O"
55

What value of inhibition has been recorded for this entry: "COc1cc([N+](=O)[O-])cc(/C=N/NC(=O)c2ccncc2)c1O"
28

What value of inhibition has been recorded for this entry: "CC(C)(C)c1ccc(O)c(/C=N/NC(=O)Cc2ccccc2)c1"
10

What value of inhibition has been recorded for this entry: "O=C(COc1ccc(F)cc1)N/N=C/c1cc(I)cc(I)c1O"
21

What value of inhibition has been recorded for this entry: "O=C(CC12CC3CC(CC(C3)C1)C2)N/N=C/c1cc([N+](=O)[O-])cc([N+](=O)[O-])c1O"
6

What value of inhibition has been recorded for this entry: "COc1cc(Br)cc(/C=N/NC(=O)C(N)=O)c1O"
10

What value of inhibition has been recorded for this entry: "COc1ccc(Br)c(/C=N/NC(=O)c2ccncc2)c1O"
27

What value of inhibition has been recorded for this entry: "COc1ccc(/C=N/NC(=O)CCc2ccc(O)cc2)c(O)c1"
12

What value of inhibition has been recorded for this entry: "CCN(CC)c1ccc(/C=N/NC(=O)c2cc(Cl)cc(Cl)c2)c(O)c1"
34

What value of inhibition has been recorded for this entry: "O=C(N/N=C/c1ccc(Cl)cc1O)c1ccc(Br)cc1"
29

What value of inhibition has been recorded for this entry: "COc1ccc(C(=O)N/N=C/c2cc(I)cc(I)c2O)cc1OC"
30

What value of inhibition has been recorded for this entry: "O=C(Cc1ccccc1)N/N=C/c1cc(Br)ccc1O"
15

What value of inhibition has been recorded for this entry: "COc1cccc(/C=N/NC(=O)c2ccccc2[N+](=O)[O-])c1O"
19

What value of inhibition has been recorded for this entry: "COc1cc([N+](=O)[O-])cc(/C=N/NC(=O)CC#N)c1O"
27

What value of inhibition has been recorded for this entry: "COc1ccc(/C=N/NC(=O)C(N)=O)c(O)c1"
13

What value of inhibition has been recorded for this entry: "O=C(N/N=C/c1cccc(F)c1O)c1cccc(C(F)(F)F)c1"
30

What value of inhibition has been recorded for this entry: "CC(C)(C)c1ccc(O)c(/C=N/NC(=O)CC23CC4CC(CC(C4)C2)C3)c1"
17

What value of inhibition has been recorded for this entry: "COc1cc(Br)cc(/C=N/NC(=O)Cc2ccccc2)c1O"
9

What value of inhibition has been recorded for this entry: "O=C(N/N=C/c1cc(Br)ccc1O)c1ccncc1"
43

What value of inhibition has been recorded for this entry: "COc1ccc(/C=N/NC(=O)c2sc3ccccc3c2Cl)c(O)c1"
15

What value of inhibition has been recorded for this entry: "O=C(N/N=C/c1ccc(O)c(O)c1O)c1ccccc1[N+](=O)[O-]"
22

What value of inhibition has been recorded for this entry: "COc1cc(/C=N/NC(=O)c2cccc(C(F)(F)F)c2)c(O)c(OC)c1"
39

What value of inhibition has been recorded for this entry: "O=C(CC12CC3CC(CC(C3)C1)C2)N/N=C/c1ccc(Cl)cc1O"
25

What value of inhibition has been recorded for this entry: "O=C(CCc1ccc(O)cc1)N/N=C/c1c(O)cc(O)cc1O"
25

What value of inhibition has been recorded for this entry: "COc1cccc(/C=N/NC(=O)c2cc(OC)c(OC)c(OC)c2)c1O"
20

What value of inhibition has been recorded for this entry: "COc1cc(C(=O)N/N=C/c2cc(Cl)cc(Cl)c2O)cc(OC)c1OC"
18

What value of inhibition has been recorded for this entry: "CCN(CC)c1ccc(/C=N/NC(=O)c2ccc(OC)c(OC)c2)c(O)c1"
44

What value of inhibition has been recorded for this entry: "COc1cccc(C(=O)N/N=C/c2cccc(F)c2O)c1"
17

What value of inhibition has been recorded for this entry: "COc1cccc(C(=O)N/N=C/c2cc(C(C)(C)C)cc(C(C)(C)C)c2O)c1"
14

What value of inhibition has been recorded for this entry: "CC(C)(C)c1cc(/C=N/NC(=O)COc2ccc([N+](=O)[O-])cc2)c(O)c(C(C)(C)C)c1"
12

What value of inhibition has been recorded for this entry: "Cc1ccc(C(=O)N/N=C/c2cc(C(C)(C)C)ccc2O)cc1"
20

What value of inhibition has been recorded for this entry: "COc1cccc(C(=O)N/N=C/c2cc(OC)cc(OC)c2O)c1"
20
